biological target: Beta-2 adrenergic receptor (Homo sapiens); test: Displacement of [3H]-DHA from recombinant human beta2 adrenoceptor expressed in HEK293T cells
Sequence (P07550 whole entry): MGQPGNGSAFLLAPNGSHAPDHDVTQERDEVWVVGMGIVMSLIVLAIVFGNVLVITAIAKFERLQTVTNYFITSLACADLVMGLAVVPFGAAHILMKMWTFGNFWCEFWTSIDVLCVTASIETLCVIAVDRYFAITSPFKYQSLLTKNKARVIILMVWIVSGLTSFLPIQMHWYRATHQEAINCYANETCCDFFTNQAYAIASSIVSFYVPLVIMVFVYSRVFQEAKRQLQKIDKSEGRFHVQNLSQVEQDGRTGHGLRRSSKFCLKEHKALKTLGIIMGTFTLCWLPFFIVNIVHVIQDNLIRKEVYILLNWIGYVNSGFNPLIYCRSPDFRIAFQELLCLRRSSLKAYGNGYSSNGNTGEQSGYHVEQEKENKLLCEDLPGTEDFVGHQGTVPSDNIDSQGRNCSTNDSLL

- molecule: "CC(C)(C)NC[C@H](O)c1ccc2c(c1)C[OH+][B-](O)(O)O2"
  Ki: "3.89 µM"
- molecule: "CC(C)(C)NC[C@H](O)c1ccc2c(c1)C[OH+][B-](O)(c1ccccc1)O2 (some centres not stated)"
  Ki: "6.61 µM"
